Target: Cytochrome P450 2C9 (Homo sapiens) (UniProt P11712)
Sequence (P11712 whole entry, looked up): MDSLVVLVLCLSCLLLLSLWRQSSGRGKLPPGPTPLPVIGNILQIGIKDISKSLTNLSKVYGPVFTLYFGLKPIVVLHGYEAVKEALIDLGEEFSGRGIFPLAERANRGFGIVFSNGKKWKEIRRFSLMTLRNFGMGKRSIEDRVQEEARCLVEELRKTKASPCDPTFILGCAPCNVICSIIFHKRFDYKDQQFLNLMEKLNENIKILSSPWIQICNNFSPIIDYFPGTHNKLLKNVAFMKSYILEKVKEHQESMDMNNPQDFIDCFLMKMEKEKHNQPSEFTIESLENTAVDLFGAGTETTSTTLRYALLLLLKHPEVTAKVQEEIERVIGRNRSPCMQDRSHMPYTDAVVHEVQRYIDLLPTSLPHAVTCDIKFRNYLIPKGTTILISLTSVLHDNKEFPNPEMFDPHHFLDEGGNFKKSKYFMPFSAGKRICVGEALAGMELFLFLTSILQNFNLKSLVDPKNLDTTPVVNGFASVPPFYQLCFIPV
Assay: blockers of cytochrome P450 2C9 activity – biochemical, luminescence, ADME assay, primary screen (AID 777)
Settings: CYP2C9 Supersomes, luciferin-H conversion, at 5 µM
Among all 96,000 compounds or so, about 19,000 (20%) were called active.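 Rule for the calls: active = blocking of liver enzyme CYP2C9 beyond about 50% at 5 µM (limit read from the data); inactive = the rest.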 Only a sample is shown.
Outcome codes: TRUE = active, FALSE = inactive

Molecule: Cc1nc(N2CCCC2C(=O)O)c2oc3ccccc3c2n1 (stereo unspecified)
Classification: FALSE

Molecule: CCOC(=O)N1CCC(NC(=O)CN2C(=O)COc3ccc(C(C)(C)C)cc32)CC1
Classification: FALSE

Molecule: O=C(CSc1n[nH]c(-c2cccnc2)n1)Nc1ccnc2ccccc12
Classification: TRUE

Molecule: O=C(Nc1cccc2ncccc12)C(Cl)(Cl)Cl
Classification: FALSE

Molecule: O=C(Cn1nnc2ccccc2c1=O)Nc1cc(C(F)(F)F)ccc1N1CCOCC1
Classification: TRUE

Molecule: O=C(Nc1cc(-c2nn(CC(=O)N3CCCCC3)c(=O)c3ccccc23)ccc1N1CCOCC1)c1ccc(Cl)cc1
Classification: FALSE

Molecule: O=C(Nc1ccccc1)N1CCN(Cc2ccccc2)CC1
Classification: FALSE

Molecule: COc1ccc(NC(C)=O)cc1NC(=O)CN1CCN(c2ccccn2)CC1
Classification: FALSE

Molecule: CC(=O)N1CCN(C(=O)Nc2cccc(C(F)(F)F)c2)CC1
Classification: FALSE

Molecule: C=CCSc1nc(Cc2ccc(Cl)cc2)nc2ccccc12
Classification: FALSE

Molecule: COc1ccc(OC)c(NC(=O)CN2CCN(C(=O)c3ccco3)CC2)c1
Classification: FALSE

* * *

Molecular target: Cytochrome P450 2C9 (Homo sapiens) (UniProt P11712)
Experiment: blockers of cytochrome P450 2C9 activity – biochemical, luminescence, ADME assay, primary screen (AID 777)
Conditions: CYP2C9 Supersomes, luciferin-H conversion, at 5 µM, active compounds read high
About 19,000 (20%) of roughly 96,000 compounds were called active. A selection follows.

Molecule: Cc1ccc(-n2nc3c(c2NC(=O)CCC2CCCCC2)CS(=O)C3)cc1 (configuration not stated)
Assay target: Cytochrome P450 2C9 (Homo sapiens) (UniProt P11712)
Unit of measure: %
inhibition: 12
--
Molecule: C=CCN(C(=O)Cn1ncc2c1-c1cc(C)ccc1OC2)c1ccccc1
Assay target: Cytochrome P450 2C9 (Homo sapiens) (UniProt P11712)
Unit of measure: %
inhibition: 38.4
--
Molecule: COc1ccccc1Cc1nc(-c2ccc(C)cc2)no1
Assay target: Cytochrome P450 2C9 (Homo sapiens) (UniProt P11712)
Unit of measure: %
inhibition: 7.1
--
Molecule: CCOc1cc(-c2noc(CCC(=O)N3CCOCC3)n2)ccc1OC
Assay target: Cytochrome P450 2C9 (Homo sapiens) (UniProt P11712)
Unit of measure: %
inhibition: -11.7
--
Molecule: CSc1nnc(CNC(=O)c2ccccc2)n1-c1ccc(F)cc1
Assay target: Cytochrome P450 2C9 (Homo sapiens) (UniProt P11712)
Unit of measure: %
inhibition: -3.4
--
Molecule: Cc1ccc(-c2noc(CCC(N)=O)n2)cc1
Assay target: Cytochrome P450 2C9 (Homo sapiens) (UniProt P11712)
Unit of measure: %
inhibition: 6.1
--
Molecule: CCN1CCCC1CNC(=O)c1cc2c(=O)n(C)c3ccccc3c2n1C (configuration not stated)
Assay target: Cytochrome P450 2C9 (Homo sapiens) (UniProt P11712)
Unit of measure: %
inhibition: 8.3
--
Molecule: Clc1ccccc1SCc1nc2ccccc2[nH]1
Assay target: Cytochrome P450 2C9 (Homo sapiens) (UniProt P11712)
Unit of measure: %
inhibition: 36.9
--
Molecule: O=C(Nc1ccccc1)c1ccc2nsnc2c1
Assay target: Cytochrome P450 2C9 (Homo sapiens) (UniProt P11712)
Unit of measure: %
inhibition: 7.6
--
Molecule: CCCCC(=O)N(c1ccc(OC)cc1)C1C=CS(=O)(=O)C1 (configuration not stated)
Assay target: Cytochrome P450 2C9 (Homo sapiens) (UniProt P11712)
Unit of measure: %
inhibition: 25.7
--
Molecule: Fc1ccc(-n2c(Cc3ccccc3)nnc2SCc2nc(-c3ccc(Cl)cc3)no2)cc1
Assay target: Cytochrome P450 2C9 (Homo sapiens) (UniProt P11712)
Unit of measure: %
inhibition: 62.6
--
Molecule: COc1ccc(-c2noc(CSc3ccc(C)cc3)n2)cc1
Assay target: Cytochrome P450 2C9 (Homo sapiens) (UniProt P11712)
Unit of measure: %
inhibition: 52.3
